B1: DYRK1B (parent)
chain: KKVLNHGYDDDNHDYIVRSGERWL

- Variants of: B1
- protocol: protein stability index of a GFP-peptide fusion (GPS, HEK-293T) (PSI 1-6); higher = more stable;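 note: lentivirally expressed fusions sorted by FACS into six bins by GFP to DsRed ratio, PSI derived from sequencing read proportions per bin multiplied by bin number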
- run_parameters: c terminus: a fixed tail appended
Listing of entries alongside the reported protein stability index.
Lab note: write the figure by itself, no unit.

R18F : 2.39
G20V : 2.03

// next item, protein stability index requested
GET /values?readout=protein stability index&item= S19T 3.06
